The origin of these recorded values is ChEMBL document CHEMBL4368937.

# procedureDetails: Cytotoxicity against human MT4 cells in presence of ZnCl2
# Type: cell-based

smilesString: c1ccc(CN(Cc2ccc3c(CN4CCCNCCNCCCNCC4)cccc3c2)Cc2ccccn2)nc1
CC50: > 10 µM
//
smilesString: c1ccc(CN(Cc2ccc3cc(CN4CCCNCCNCCCNCC4)ccc3c2)Cc2ccccn2)nc1
CC50: > 10 µM
//
smilesString: c1ccc(CN(Cc2ccc(CN3CCCNCCNCCCNCC3)cc2)Cc2ccccn2)nc1
CC50: > 10 µM

----------
Parameter: inhibition. Scope: all listed entries.
# experimentalSystem: C-X-C chemokine receptor type 4 (Homo sapiens, UniProt P61073)
# Sequence (P61073 whole entry): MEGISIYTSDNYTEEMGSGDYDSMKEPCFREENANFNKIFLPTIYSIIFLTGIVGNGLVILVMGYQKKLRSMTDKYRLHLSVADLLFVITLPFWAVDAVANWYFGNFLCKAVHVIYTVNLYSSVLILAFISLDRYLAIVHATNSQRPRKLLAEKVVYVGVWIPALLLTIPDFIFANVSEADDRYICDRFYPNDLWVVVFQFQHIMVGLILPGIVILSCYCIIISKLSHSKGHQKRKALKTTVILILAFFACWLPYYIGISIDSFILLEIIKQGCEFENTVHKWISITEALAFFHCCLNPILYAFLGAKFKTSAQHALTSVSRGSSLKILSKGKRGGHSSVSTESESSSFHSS
# procedureDetails: Competitive inhibition of TAMRAAc-TZ14011 binding to CXCR4 (unknown origin) expressed in CHO cells at 1 uM in absence of ZnCl2 by NanoBRET assay relative to control
# Format: cell-based

smilesString: c1ccc(CN(Cc2ccnc(-c3ccc(CN4CCCNCCNCCCNCC4)cc3)c2)Cc2ccccn2)nc1
inhibition: 79.7%

smilesString: c1ccc(CN(Cc2ccccn2)Cc2ccccc2-c2ccc(CN3CCCNCCNCCCNCC3)cc2)nc1
inhibition: 64.6%

smilesString: c1ccc(CN(Cc2ccc(-c3ccc(CN4CCCNCCNCCCNCC4)cc3)cc2)Cc2ccccn2)nc1
inhibition: 51.1%

smilesString: c1ccc(CN(Cc2ccccn2)Cc2ccccc2-c2ccccc2CN2CCCNCCNCCCNCC2)nc1
inhibition: 79.8%

smilesString: c1ccc(CN(Cc2ccnc(-c3cc(CN4CCCNCCNCCCNCC4)ccn3)c2)Cc2ccccn2)nc1
inhibition: 88.5%

smilesString: c1ccc(CN(Cc2ccc3nc(CN4CCCNCCNCCCNCC4)ccc3c2)Cc2ccccn2)nc1
inhibition: 81.1%

----------
Consider the following molecules and their measured inhibition readings.
# experimentalSystem: C-X-C chemokine receptor type 4 (Homo sapiens, UniProt P61073)
# procedureDetails: Competitive inhibition of TAMRAAc-TZ14011 binding to CXCR4 (unknown origin) expressed in CHO cells at 1 uM in absence of ZnCl2 by NanoBRET assay relative to control
# Type: cell-based

smilesString: c1ccc(CN(Cc2ccc3c(CN4CCCNCCNCCCNCC4)cccc3c2)Cc2ccccn2)nc1
inhibition / %: 81.5

smilesString: c1ccc(CN(Cc2ccc3c(c2)-c2cc(CN4CCCNCCNCCCNCC4)ccc2OCCO3)Cc2ccccn2)nc1
inhibition / %: 47.8

smilesString: c1ccc(CN(Cc2ccc(CN3CCCNCCNCCCNCC3)cc2)Cc2ccccn2)nc1
inhibition / %: 101

smilesString: c1ccc(CN(Cc2ccc3c(c2)-c2cc(CN4CCCNCCNCCCNCC4)ccc2OCCCCO3)Cc2ccccn2)nc1
inhibition / %: 54.5

smilesString: c1ccc(CN(Cc2ccc(-c3ccc(CN4CCCNCCNCCCNCC4)cn3)nc2)Cc2ccccn2)nc1
inhibition / %: 75.3

smilesString: c1ccc(CN(Cc2ccc(-c3ncccc3CN3CCCNCCNCCCNCC3)cc2)Cc2ccccn2)nc1
inhibition / %: 31.9

smilesString: c1ccc(CN(Cc2ccnc(-c3cccc(CN4CCCNCCNCCCNCC4)c3)c2)Cc2ccccn2)nc1
inhibition / %: 47.6

smilesString: c1ccc(CN(Cc2cccc(-c3ccccc3CN3CCCNCCNCCCNCC3)c2)Cc2ccccn2)nc1
inhibition / %: 44.4

smilesString: c1ccc(CN(Cc2cccc(-c3cccc(CN4CCCNCCNCCCNCC4)c3)c2)Cc2ccccn2)nc1
inhibition / %: 40.4
